Cited source: patent US11414429B2

- measuredTarget: tankyrase 2 (TNKS 2) (Homo sapiens, UniProt Q9H2K2)
- Construct: 613-1, 116aa; made in house; host or cells: cell-free protein synthesis system
- Sequence (Q9H2K2 613-1166): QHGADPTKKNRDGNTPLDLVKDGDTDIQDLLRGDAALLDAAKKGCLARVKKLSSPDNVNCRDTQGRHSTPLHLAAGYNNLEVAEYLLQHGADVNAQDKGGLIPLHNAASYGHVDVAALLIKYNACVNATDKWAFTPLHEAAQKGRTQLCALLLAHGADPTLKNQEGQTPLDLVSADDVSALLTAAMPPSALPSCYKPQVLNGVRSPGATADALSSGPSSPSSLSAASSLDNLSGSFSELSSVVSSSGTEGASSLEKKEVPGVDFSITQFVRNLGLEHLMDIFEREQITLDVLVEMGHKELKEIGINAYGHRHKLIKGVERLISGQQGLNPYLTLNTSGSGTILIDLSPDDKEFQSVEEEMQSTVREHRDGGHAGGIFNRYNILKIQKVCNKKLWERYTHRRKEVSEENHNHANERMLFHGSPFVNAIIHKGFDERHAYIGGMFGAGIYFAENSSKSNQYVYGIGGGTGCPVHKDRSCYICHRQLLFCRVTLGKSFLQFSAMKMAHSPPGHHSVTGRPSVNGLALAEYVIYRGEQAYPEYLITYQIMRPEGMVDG
- testProtocol: Tankyrase inhibitory activity test (ELISA, self-polyADP ribosylation), tankyrase 2
- Format: biochemical
- cond: tankyrase 2, ELISA, self-polyADP ribosylation; read-out: TNKS2 inhibitory activity (IC50 class)
Assignment: determine reported IC50 for the given compounds.

Solved cases below.
{"columns": ["structureNotation", "IC50"],
 "data": [
  ["O=c1[nH]c(N2CCC3(CC2)CN(Cc2ccccc2F)c2cc(F)cc(F)c23)nc2c1CCCC2", "20 to 200 nM"],
  ["O=c1[nH]c(N2CCC3(CC2)CN(Cc2cccc(F)c2)c2cc(F)cc(F)c23)nc2c1CCCC2", "< 20 nM"],
  ["CN1CCCc2c1nc(N1CCC3(CC1)CN(CCO)c1cc(F)cc(F)c13)[nH]c2=O", "< 20 nM"]
]}

IC50 in this record for `CN1CCCc2c1nc(N1CCC3(CC1)C(=O)N(C)c1cc(OCCN4CCOCC4)cc(Cl)c13)[nH]c2=O` : < 20 nM
